Biological target: human GRP receptor (human, UniProt P30550 1-384)
Sequence (P30550 whole entry): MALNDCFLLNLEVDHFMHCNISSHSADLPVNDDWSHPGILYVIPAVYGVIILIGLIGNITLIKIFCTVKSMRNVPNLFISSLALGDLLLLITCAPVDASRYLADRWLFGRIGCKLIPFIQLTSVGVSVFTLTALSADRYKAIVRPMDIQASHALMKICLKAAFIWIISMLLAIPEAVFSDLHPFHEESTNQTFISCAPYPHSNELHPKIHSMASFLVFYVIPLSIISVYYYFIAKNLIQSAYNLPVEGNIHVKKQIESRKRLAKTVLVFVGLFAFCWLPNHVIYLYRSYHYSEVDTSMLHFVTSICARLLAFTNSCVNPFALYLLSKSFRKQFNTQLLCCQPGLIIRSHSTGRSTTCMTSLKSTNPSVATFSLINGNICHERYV
Assay: cell-based or functional assay
Starred links: 1 amine or outer side, 2 acyl side, 3 side chain; linkers in the order of their positions; H or OH if unused. Non-standard residues stand in square brackets, D forms with d. *: point of attachment. C20 diacid = O=C(O)CCCCCCCCCCCCCCCCCCC(=O)*; d(γGlu) = O=C(O)[C@@H](CCC(=O)[*:2])N[*:1]; γGlu = O=C(O)[C@H](CCC(=O)[*:2])N[*:1]; Palmitoyl = CCCCCCCCCCCCCCCC(=O)*; Nle = CCCC[C@H](N)C(=O)O
hIP1 GRPR EC50 overview
Number in nM, nothing else.

{C20 diacid}-[γGlu]RRHWAV[dA]HL[Nle]-NH2 (SMILES CCCC[C@H](NC(=O)[C@H](CC(C)C)NC(=O)[C@H](Cc1c[nH]cn1)NC(=O)[C@@H](C)NC(=O)[C@@H](NC(=O)[C@H](C)NC(=O)[C@H](Cc1c[nH]c2ccccc12)NC(=O)[C@H](Cc1c[nH]cn1)NC(=O)[C@H](CCCNC(=N)N)NC(=O)[C@H](CCCNC(=N)N)NC(=O)CC[C@H](NC(=O)CCCCCCCCCCCCCCCCCCC(=O)O)C(=O)O)C(C)C)C(N)=O) [Peptide 158] = 1.68

Here's the next entry for you.
q: Would you kindly share the measured hIP1 GRPR EC50 for Palmitoyl-[d(γGlu)]GNHWAV[dA]HL[Nle]-NH2 (SMILES CCCCCCCCCCCCCCCC(=O)N[C@H](CCC(=O)NCC(=O)N[C@@H](CC(N)=O)C(=O)N[C@@H](Cc1c[nH]cn1)C(=O)N[C@@H](Cc1c[nH]c2ccccc12)C(=O)N[C@@H](C)C(=O)N[C@H](C(=O)N[C@H](C)C(=O)N[C@@H](Cc1c[nH]cn1)C(=O)N[C@@H](CC(C)C)C(=O)N[C@@H](CCCC)C(N)=O)C(C)C)C(=O)O) [Peptide 26] ?
a: 1.8
